tested on: HEK-293T; experiment: Multiplex assay against HEK293T; assay type: toxicity, cell-based; conditions: human, 12 h, 1 µM, compound concentration 1 uM, replicate 2
assay.endpoint: Population Mitotic Cells (%)
Note: unit % is implicit; provide only the numeric part.

Check out these entries, answers already filled in.
input.smiles: Cl.Oc1ccc2c3c1O[C@H]1c4[nH]c5c(c4C[C@@]4(O)[C@@H](C2)N(CC2CC2)CC[C@]314)C[C@@]1(O)[C@H]2Cc3ccc(O)c4c3[C@@]1(CCN2CC1CC1)[C@H]5O4
Population Mitotic Cells (%): 89

input.smiles: S=C(NCCCc1c[nH]cn1)NCCCN(Cc1ccc(Cl)c(Cl)c1)c1ccc(Br)cn1
Population Mitotic Cells (%): 80

input.smiles: CCNc1cc(N[C@H]2CC[C@H](O)CC2)nc(Nc2ccc3c(ccn3Cc3ccccc3)c2)n1
Population Mitotic Cells (%): 92

Here is the next item to consider.
Prompt line: Name the recorded Population Mitotic Cells (%) for CCCS(=O)(=O)Nc1ccc(F)c(C(=O)c2c[nH]c3ncc(Cl)cc23)c1F .
Response line: 93

* * *

system: Fibroblast; assay: Multiplex assay against human fibroblast; type: toxicity, cell-based; conditions: 48 h, 10 µM, compound concentration 10 uM, replicate 1
assay.endpoint: Population Healthy Nuclei (%)
Note: unit % is implicit; provide only the numeric part.

molecule: Cl.Oc1ccc2c3c1O[C@H]1c4[nH]c5c(c4C[C@@]4(O)[C@@H](C2)N(CC2CC2)CC[C@]314)C[C@@]1(O)[C@H]2Cc3ccc(O)c4c3[C@@]1(CCN2CC1CC1)[C@H]5O4
assay.endpoint: Population Healthy Nuclei (%)
u: %
test.result: 55
--
molecule: CCn1c(=O)c(-c2ccc(-c3cncs3)cc2Cl)cc2cnc(Nc3ccc(N4CCN(C)CC4)cc3)nc21
assay.endpoint: Population Healthy Nuclei (%)
u: %
test.result: 5
--
molecule: CCN1CCN(Cc2ccc(Nc3ncc(F)c(-c4cc(F)c5nc(C)n(C(C)C)c5c4)n3)nc2)CC1.CS(=O)(=O)O
assay.endpoint: Population Healthy Nuclei (%)
u: %
test.result: 20

Prompt line: Name the recorded Population Healthy Nuclei (%) for O=C1N/C(=N/c2ccccc2F)S/C1=C\c1ccc(C(=O)O)cc1 .
Response line: 47

Prompt line: Name the recorded Population Healthy Nuclei (%) for Cc1cn(-c2cc(NC(=O)c3ccc(C)c(Nc4nccc(-c5cccnc5)n4)c3)cc(C(F)(F)F)c2)cn1 [NILOTINIB] .
Response line: 43

Prompt line: Name the recorded Population Healthy Nuclei (%) for CCCS(=O)(=O)c1nc(NC2CC2)cc(-c2ccc3c(ccn3C3CC(C)(C)NC(C)(C)C3)c2)n1 .
Response line: 25

Prompt line: Name the recorded Population Healthy Nuclei (%) for S=C(NCCCc1c[nH]cn1)NCCCN(Cc1ccc(Cl)c(Cl)c1)c1ccc(Br)cn1 .
Response line: 25

* * *

test system: Fibroblast; assay: Multiplex assay against human fibroblast; format: toxicity, cell-based; conditions: 48 h, 1 µM, compound concentration 1 uM, replicate 2
Catalogue of Population Fragmented Nuclei (%) values
Show the value, then the unit it is measured in.

Check out these entries, answers already filled in.
input.smiles: Cc1cc(C)c(S(=O)(=O)N(Cc2ccc(-c3cccc(S(C)(=O)=O)c3)cc2)Cc2ccc(C(F)(F)F)o2)c(C)c1
Population Fragmented Nuclei (%): 17%

input.smiles: CNc1cc(Oc2cc(C(=O)Nc3cc(N4CCN(C)CC4)cc(C(F)(F)F)c3)ccc2C)ncn1
Population Fragmented Nuclei (%): 43%

Prompt line: Query the reported Population Fragmented Nuclei (%) for Fibroblast; item: Cl.O=c1c2cccn2c2ccccc2n1CCCN1CCC(c2ccc(Cl)cc2)CC1
Response line: 44%

Prompt line: Query the reported Population Fragmented Nuclei (%) for Fibroblast; item: CCCn1c(=O)c2[nH]c(-c3cnn(Cc4cccc(C(F)(F)F)c4)c3)nc2n(CC)c1=O
Response line: 20%

Prompt line: Query the reported Population Fragmented Nuclei (%) for Fibroblast; item: Cl.Oc1ccc2c3c1O[C@H]1c4[nH]c5c(c4C[C@@]4(O)[C@@H](C2)N(CC2CC2)CC[C@]314)C[C@@]1(O)[C@H]2Cc3ccc(O)c4c3[C@@]1(CCN2CC1CC1)[C@H]5O4
Response line: 16%
